# test.description: physchem
# particulars: octan-1-ol/water, pH 7.4, LogD7.4
Threshold check on logD: strictly below 2 is 1.0; on or above 2 is 0.0.

# molecule, category
records = [
    ("CCN(C(=O)Cc1ccc(S(C)(=O)=O)cc1)C1CCN(CCC(c2ccccc2)c2ccc(NC(=O)C(C)(C)C)cc2)CC1 (stereo not given)", 0.0),
    ("CCC(CC)NC(=O)c1cnn(-c2ccccn2)c1NS(=O)(=O)c1ccc(C)cc1", 1.0),
    ("CCCc1c(OCCCSc2ccc(CC(=O)O)cc2Cl)ccc(C(=O)CC)c1O", 0.0),
]

q: Field: below-cutoff. Rule: recorded logD strictly less than 2. Subject: OCCOCCN1CCN(C(c2ccccc2)c2ccc(Cl)cc2)CC1 (stereo not given) [HYDROXYZINE]
a: 0.0

====

Listing: logD of selected molecules
# test.description: physchem
# particulars: octan-1-ol/water, pH 7.4, LogD7.4
Could you respond with only the numeric value?

# entry.smiles, obs.value
measured = [
    ("COc1cc2ncnc(Nc3ccc(F)c(Cl)c3)c2cc1OC", 3.67),
    ("COc1ccc2ncc(=O)n(CCN3CCC(NCc4cc5c(cn4)OCCO5)CC3)c2c1", 0.93),
    ("CC(C)Oc1cc(OCCc2ccsc2)cc(C(=O)Nc2ccc(C(=O)O)cn2)c1", 1.74),
    ("CCOc1ccc(-n2c([C@@H](C)N(CC3CCN(C)CC3)C(=O)Cc3ccc(F)c(C(F)(F)F)c3)nc3ncccc3c2=O)cc1", 1.4),
]

As a next step, examine the molecule that follows.
q: Quick one: logD of COC(=O)COc1ccc(O)cc1 ?
a: 0.92

====

Listing: log10 solubility thermodynamic of selected molecules
# test.description: physchem
# particulars: pH 7.4 buffer
A value of 2 here means solubility thermodynamic of 100 in µM, since values are log10.

Recorded results for 3 molecules are shown here.
# molecule, log10 solubility thermodynamic
rows = [
    ("Nc1nc(N)c2nc(-c3ccccc3)c(N)nc2n1", 1.99),
    ("c1ccc(-c2nc(-c3ccccc3)c(-c3ccccc3)o2)cc1", 0.28),
    ("CN(C)CC(O)COc1ccc(Nc2nccc(Nc3cccc(Cl)c3)n2)cc1 (stereo unspecified)", 2.08),
]

As a next step, examine the molecule that follows.
q: Quick one: log10 solubility thermodynamic of Cc1nn(-c2ccccc2)c(NS(=O)(=O)C2CCCCC2)c1C(=O)N[C@@H](C)C(C)(C)C ?
a: 2.60

====

# test.description: in vitro
# particulars: human, plasma, PPB
reported.property: fraction unbound at 5 h
Could you respond with only the numeric value?

Recorded results for 8 compounds are shown here.
# compound, fraction unbound at 5 h
rows = [
    ("COCCOc1cc2ncc(C(N)=O)c(Nc3ccc(C)cc3F)c2cc1N1CCN(C)CC1", 0.151),
    ("O=C1[C@@H]2[C@@H]3CC[C@@H](C3)[C@@H]2C(=O)N1[C@H]1CC[C@H](C(=O)Nc2cccc3cccnc23)CC1", 0.016),
    ("N#Cc1cc(S(=O)(=O)Nc2ncns2)ccc1Oc1ccc(C(F)(F)F)cc1-c1ccnnc1", 0.0059),
    ("C[C@H](Nc1ncc(F)c(Nc2cc(C3CC3)[nH]n2)n1)c1ccc(F)cn1", 0.0801),
    ("CNc1c(Br)cnc2[nH]c(-c3ccc(S(C)(=O)=O)cc3)nc12", 0.0477),
    ("NC(=O)c1cncc(-c2ccc([C@H]3CC[C@H](CC(=O)O)CC3)cc2)n1", 0.035),
    ("Cc1cc(N2CCC[C@@H]2C(=O)NCCc2ccc3c(c2)OCO3)nc(-n2ccnc2)n1", 0.19),
    ("CS(=O)(=O)c1ccc(-c2cnc(N)c(-c3ccc(C(F)(F)F)nc3)c2)cc1", 0.194),
]

q: Quick one: fraction unbound at 5 h of COc1ccc2cc(S(=O)(=O)N[C@H](CC(=O)N[C@H](Cc3ccc(CN4[C@H](C)CCC[C@@H]4C)cc3)C(=O)N(C)C(C)C)c3ccc4c(c3)OCO4)ccc2c1 ?
a: 0.04

q: Quick one: fraction unbound at 5 h of O=C(N[C@@H]1COc2cccc(-c3ccc(CO)nc3)c2C1)c1ccc(OCC(F)(F)F)nc1 ?
a: 0.0374

q: Quick one: fraction unbound at 5 h of COCCOc1cc2ncc(C(N)=O)c(Nc3cccc(Cl)c3Cl)c2cc1N1CCN(C)CC1 ?
a: 0.103

q: Quick one: fraction unbound at 5 h of Cc1cc(Nc2nc(N[C@@H](C)c3ccc(F)cn3)c(C#N)cc2Cl)n[nH]1 ?
a: 0.0358

q: Quick one: fraction unbound at 5 h of CCOc1cc2ncc(C(N)=O)c(Nc3cccc(Cl)c3Cl)c2cc1N1CCN(CCOC)CC1 ?
a: 0.0171

====

# test.description: in vitro
# particulars: human, plasma
Threshold check on fraction unbound at 5 h: strictly below 0.1 is Yes; on or above 0.1 is No.

# molecule, category
measured = [
    ("Cc1ncc2n1-c1ccc(Cl)cc1C(c1ccccc1F)=NC2", "Yes"),
    ("CCCCCOc1ccc(C(=O)NC(C(=O)O)C(C)C)cc1 (stereo unspecified)", "Yes"),
    ("Cc1ccnc2c1NC(=O)c1cccnc1N2C1CC1", "No"),
    ("CN(C)C(=O)C(CCN1CCC(O)(c2ccc(Cl)cc2)CC1)(c1ccccc1)c1ccccc1 [LOPERAMIDE]", "Yes"),
    ("O=C(O)c1cn(Cc2ccccc2)c2ccccc12", "Yes"),
    ("CCOC(=O)Nc1ccc(NCc2ccc(F)cc2)cc1N", "No"),
    ("Oc1ncc(NCc2ccccc2)c(O)n1", "No"),
    ("CNC1(c2ccccc2Cl)CCCCC1=O (stereo unspecified)", "No"),
]

q: Field: below-cutoff. Rule: recorded fraction unbound at 5 h strictly less than 0.1. Subject: COc1ccc2c(c1)N(CCN1CCC(NCc3ccc4c(n3)NC(=O)CO4)CC1)C(=O)CO2
a: No

q: Field: below-cutoff. Rule: recorded fraction unbound at 5 h strictly less than 0.1. Subject: CCCN(c1cccc(S(C)(=O)=O)c1)P(=O)(c1ccccc1)c1ccccc1
a: Yes

q: Field: below-cutoff. Rule: recorded fraction unbound at 5 h strictly less than 0.1. Subject: CC(=O)Nc1ccc2ccn(-c3cc(NC4CC4)n4ncc(C#N)c4n3)c2c1
a: Yes

====

# test.description: ASTRAZENECA: Third most basic pKa value (pKa B3) determined by absorption and potentiometric titration using standard methodology from Sirius Analytical. Experimental range Bases: >= 2.
# Type: physicochemical
# particulars: read-out: pKa_B3
Listing: pKa of selected compounds
Could you respond with only the numeric value?

# entry.smiles, obs.value
records = [
    ("CN(C)CCNc1cc(-c2ccc(N3CCN(C)CC3)cc2)nc2ccccc12", 7.31),
]

As a next step, examine the compound that follows.
q: Quick one: pKa of COc1cc2nc(-c3ccc(N4CCN(C)CC4)cc3)nc(NCCN3CCOCC3)c2cc1OC ?
a: 5.6

====

# test.description: in vitro
# particulars: hepatocytes
Listing: hepatocyte CLint of selected molecules
Numbers only; they are read as µL/min/1e6 cells.

# molecule, unit.tag, obs.value
records = [
    ("O=C(CC12CC3CC(CC(C3)C1)C2)Nc1cccc2c(=O)n(C(CO)CO)ccc12", "µL/min/1e6 cells", 19),
    ("Cc1ccc(S(=O)(=O)Nc2c(C(=O)N[C@@H](C)C(C)(C)C)c(C)nn2C(C)C)cc1", "µL/min/1e6 cells", 10),
    ("CN(C)c1nc(Cc2ccc(NC(=O)c3ccc(C(F)(F)F)cc3)cc2)nc(N(C)C)c1CC(=O)O", "µL/min/1e6 cells", 18.6),
    ("Cc1cc(CN2Cc3ccccc3C[C@H]2C(=O)Nc2ccc(Cl)cc2Cl)ccc1OCC(=O)O", "µL/min/1e6 cells", 31),
    ("C[C@@](C(=O)O[C@H]1C[N+]2(CCCc3ccc4ncsc4c3)CCC1CC2)(c1ccccc1)N1CCCCC1", "µL/min/1e6 cells", 66),
    ("Cc1ccc(C(=O)c2ccc(CC(=O)O)n2C)cc1", "µL/min/1e6 cells", 7.33),
    ("O=C(O)[C@H](Cc1ccccc1)N1CCC(CN2CCC(Oc3ccc(CO)c(Cl)c3)CC2)CC1", "µL/min/1e6 cells", 28),
    ("CCOC(=O)C1=C(C)NC(C)=C(C(C)=O)[C@H]1c1cccc2c(=O)cc(C)oc12", "µL/min/1e6 cells", 105),
]

q: Quick one: hepatocyte CLint of Cn1c(=O)c(-c2c(Cl)cccc2Cl)cc2cnc(Nc3ccc(F)cc3)nc21 ?
a: 6.17

q: Quick one: hepatocyte CLint of N#Cc1ccc2c(c1)N(CCN1CCC(NCc3ccc4c(n3)NC(=O)CO4)CC1)C(=O)CO2 ?
a: 8.51

q: Quick one: hepatocyte CLint of CCC(CC)C[C@H](c1ccc(C(=O)O)c(Oc2cccc(Cl)c2)c1)N1CCC[C@H](n2cc(C)c(=O)[nH]c2=O)C1 ?
a: 36.3

q: Quick one: hepatocyte CLint of C[C@]12CCC(=O)C=C1C=C[C@@H]1[C@@H]2CC[C@@]2(C)[C@H]1CC[C@@]21CCC(=O)O1 ?
a: 45.7

q: Quick one: hepatocyte CLint of CC(C)N(CCCNC(=O)Nc1ccc(C(C)(C)C)cc1)C[C@H]1O[C@@H](n2ccc3c(N)ncnc32)[C@H](O)[C@@H]1O ?
a: 33.9

q: Quick one: hepatocyte CLint of C[C@@H]1Cc2c([nH]c3cc(Cl)c(F)cc23)[C@]2(N1)C(=O)Nc1ccc(Cl)cc12 ?
a: 7.24

q: Quick one: hepatocyte CLint of N#Cc1ccc2[nH]c(-c3ccc(F)cc3)c(CCCC(=O)NS(N)(=O)=O)c2c1 ?
a: 19.6

q: Quick one: hepatocyte CLint of Nc1ccc(-c2ccccc2Cl)cc1 ?
a: 123

q: Quick one: hepatocyte CLint of CCC(=O)N[C@H]1CC[C@@H](C(=O)N(C)c2ccc(-c3nc4ccccc4o3)cc2)C1 ?
a: 7.59

q: Quick one: hepatocyte CLint of CC(C)(C)c1cc(NC(=O)NCc2ccccc2Sc2ccc3nnc(-c4ccccc4SCCO)n3c2)n(-c2ccc(O)c(Cl)c2)n1 ?
a: 70.8

q: Quick one: hepatocyte CLint of O=c1[nH]c2c(O)ccc([C@@H](O)CNCCc3cccc(CNCc4ccccc4Cl)c3)c2s1 ?
a: 60

q: Quick one: hepatocyte CLint of Cc1oc(-c2ccccc2)cc1C(=O)Nc1cccc(C(=O)O)c1 ?
a: 66.1

q: Quick one: hepatocyte CLint of Cc1cn([C@H]2CCCN([C@H](CC3CCOCC3)c3ccc(C(=O)O)c(Oc4cccc(Cl)c4)c3)C2)c(=O)[nH]c1=O ?
a: 19.1

q: Quick one: hepatocyte CLint of CCCCC1=NC2(CCCC2)C(=O)N1Cc1ccc(-c2ccccc2-c2nnn[nH]2)cc1 ?
a: 9.01

q: Quick one: hepatocyte CLint of Nc1ncnc2c1ncn2[C@@H]1O[C@H](CSCCCNC(=O)Nc2ccccc2)[C@@H](O)[C@H]1O ?
a: 28.2

q: Quick one: hepatocyte CLint of C[C@]1(O)C[C@@H](c2nc(-c3ccc4ccc(-c5ccccc5)nc4c3)c3c(N)nccn32)C1 ?
a: 17

q: Quick one: hepatocyte CLint of COc1cc2ncnc(Nc3ccc(F)c(Cl)c3)c2cc1NC(=O)/C=C/CN1CCCCC1 [DACOMITINIB ANHYDROUS] ?
a: 9.77

q: Quick one: hepatocyte CLint of CCOC(=O)C1=C(C)NC(C)=C(C(=O)OC)C1c1cccc([N+](=O)[O-])c1 (configuration not stated) ?
a: 75

Values compiled from ChEMBL document CHEMBL3301361.
